Data origin, for the record: patent US20080050370A1

- target_entity: T1, LTβR-Ig (UniProt P36941 31-227, limits assumed)
- T1 construct: extracellular domain; also called LTβR Ig receptor; recombinantly produced LTβR receptor; not shown: human Fc region
- measurement_notes: thermal challenge assay; T50 = temperature at which 50% of the molecules keep binding to plate-coated LTβR-Ig (DELFIA); unit taken from the x axis
Catalogue of binders with associated T50
Report the value in °C with no unit label.

Please review the entries below; each comes with its answer.
BHA10 (Gly4Ser)4 scFv (scFv, His-tagged (captured through anti-PENTA-His); also called Wild-type, (G4S)*4 linker; GS4) scFv: QVQLVQSGAEVKKPGSSVKVSCKASGYTFTTYYLHWVRQAPGQGLEWMGWIYPGNVHAQYNEKFKGRVTITADKSTSTAYMELSSLRSEDTAVYYCARSWEGFPYWGQGTTVTVSSGGGGSGGGGSGGGGSGGGGSDIQMTQSPSSLSASVGDRVTITCKASQNVGINVAWYQQKPGKAPKSLISSASYRYSGVPSRFSGSGSGTDFTLTISSLQPEDFATYFCQQYDTYPFTFGQGTKVEIK : 53
conventional BHA10 scFv, VH-(Gly4Ser)3-VL (scFv, also called Wild-type, (G4S)*3 linker; WT) scFv: QVQLVQSGAEVKKPGSSVKVSCKASGYTFTTYYLHWVRQAPGQGLEWMGWIYPGNVHAQYNEKFKGRVTITADKSTSTAYMELSSLRSEDTAVYYCARSWEGFPYWGQGTTVTVSSGGGGSGGGGSGGGGSDIQMTQSPSSLSASVGDRVTITCKASQNVGINVAWYQQKPGKAPKSLISSASYRYSGVPSRFSGSGSGTDFTLTISSLQPEDFATYFCQQYDTYPFTFGQGTKVEIK : 49
BHA10 VH44/VL100 scFv (scFv, disulfide bond between VH44 Cys and VL100 Cys (Kabat), Expressed in E. coli; also called IEH006 (GS3 + SS); pIEH006) scFv, VH-(Gly4Ser)3-VL: QVQLVQSGAEVKKPGSSVKVSCKASGYTFTTYYLHWVRQAPGQCLEWMGWIYPGNVHAQYNEKFKGRVTITADKSTSTAYMELSSLRSEDTAVYYCARSWEGFPYWGQGTTVTVSSGGGGSGGGGSGGGGSDIQMTQSPSSLSASVGDRVTITCKASQNVGINVAWYQQKPGKAPKSLISSASYRYSGVPSRFSGSGSGTDFTLTISSLQPEDFATYFCQQYDTYPFTFGCGTKVEIK : 59

Next up:
Measured T50, BHA10 Fab (Fab, V domains shown, Made by enzymatic cleavage of BHA10 IgG1; also called BHA10 Fab (CHO)) VH: QVQLVQSGAEVKKPGSSVKVSCKASGYTFTTYYLHWVRQAPGQGLEWMGWIYPGNVHAQYNEKFKGRVTITADKSTSTAYMELSSLRSEDTAVYYCARSWEGFPYWGQGTTVTVSS VL: DIQMTQSPSSLSASVGDRVTITCKASQNVGINVAWYQQKPGKAPKSLISSASYRYSGVPSRFSGSGSGTDFTLTISSLQPEDFATYFCQQYDTYPFTFGQGTKVEIK : 62
